target: adenylyl cyclase activity in the heart; construct: IC50 on adenylyl cyclase activity in the heart; other: WT; estimated from 10, 50 and 100 μM; assay: Membrane adenylyl cyclase assay, WT heart membrane, forskolin-stimulated; details: WT; estimated from 10, 50 and 100 μM; 50 μM forskolin
attribute-measured: IC50 (µM)

{"columns": ["compound", "attribute-measured", "quantitative-result"],
 "data": [
  ["CN(C)CC(=O)OC1C(O)C(CO)OC1n1cnc2c(N)ncnc21 (stereo not shown)", "IC50", 17.8],
  ["CN(C)CC(=O)OCC1OC(n2cnc3c(N)ncnc32)C(O)C1O (stereo not shown)", "IC50", 42.9],
  ["Nc1ncnc2c1ncn2[C@@H]1O[C@H](CO)[C@@H](O)[C@@H]1O [vidarabine, reference compound]", "IC50", 7.7],
  ["CN(C)CC(=O)OC1C(CO)OC(n2cnc3c(N)ncnc32)C1O (stereo not shown)", "IC50", 19.9]
]}
